# TGT: FTM-NN protein (membrane anchorless form of the Long fusion protein of hRSV, 70 kDa) (human respiratory syncytial virus, …, UniProt P12568 26-524)
# PROCEDURE TEXT: competition ELISA, periplasmic extract diluted 1:1000, competitor 101F Fab
PROPERTY LABEL: % Inhibition 101F Fab (1:1000 PE) (%)
One number for each entry, in %.

- BINDER: "PMP13D1 (VHH) VHH: EVQLVESGGGLVQPGGSLRLSCATSGFTEDYYVIGWFRQAPGKEREGVSCMSSSGDSTTYADSVKGRFTISRDNAKNMVYLQMTSLKPEDTAVYYCAADFALGCYSGSYYPRYDYWGQGTQVTVSS"
  PROPERTY LABEL: "% Inhibition 101F Fab (1:1000 PE)"
  RECORDED VALUE: 16

Would you be so kind as to report % Inhibition 101F Fab (1:1000 PE) for each listed record?
1. PMP13C1 (VHH) VHH: EVQLVESGGGLVQPGGSLRLSCEASGFTWDYYVIGWFRQAPGKEREGLSCISSDGSTTYADSVKGRFTISRDNAKNTVYLQMNSLEPEDTAVYYCATDPALGCYSGSYYPRYDYWGQGTQVTVSS
2. PMP8A1 (VHH) VHH: EVQLVESGGGLVQPGGSLRVSCAASGFTFNDYIMGWFRQAPGKERMFIAAISGTGTIKYYGDLVRGRFTISRDNAKNTVYLRIDSLNPEDTAVYYCAARQDYGLGYRESHEYDYWGQGTQVTVSS

OUT:
9
20
